System: CEM cells HIV-1 protection, formazan growth assay
assay_remarks: NCI AIDS Antiviral Assay
details: measured here: growth of uninfected CEM cells
pIC50: −log10 of the molar value.
pIC50 by entry:
readout_label: pIC50

> print(dat)
                                    molecule  inequality.operator  measured.result
 1           NC(CSS(=O)(=O)O)=NCCCCOc1ccccc1                    =             4.04
 2  NC(CCOCCP(=O)(O)CCOCCC(N)C(=O)O)C(=O)O (stereo not given)                    <             3.70
 3  CCOC(=O)/C(ON)=C(/CC/C(C(=O)OC)=C(\ON)C(=O)OCC)C(=O)OC                    =             3.21
 4  O=[N+]([O-])/N=c1/nc2scc(-c3ccc([N+](=O)[O-])cc3)n2s1                    =             4.53
 5  CCP(=O)(CC)C(Cl)(Cl)C(O)C(Cl)(Cl)Cl (stereo not given)                    <             3.70
 6  CC1OC2COC(C)OC2C(C2CN2)O1 (stereo not given)                    =             3.23
 7    COC(=O)[C@@H]1CN(C(=O)c2ccccc2)C(=O)N1                    <             3.70
 8  CCCCC/C=C\CCC/C=C\CCCCCCOP(=O)(O)OCCC=C(c1cc(Cl)c(O)c(C(=O)O)c1)c1cc(Cl)c(O)c(C(=O)O)c1                    =             4.08
 9  CC(=O)n1c2ccccc2c2nc3nc(Oc4ccc(C)cc4)c4ccccc4c3cc21                    <             5.18
10   O=C(O)c1ccc[n+](CC(=O)c2ccc(O)c(O)c2)c1                    <             3.70

###

Test system: CEM cells HIV-1 protection, formazan growth assay
assay_remarks: NCI AIDS Antiviral Assay
details: measured here: growth of uninfected CEM cells
IC50 by entry:
readout_label: IC50

> print(dat)
                                    molecule  readout.label  measured.result
 1                 CCC(CON(C)c1ccccc1)(SC)SC           IC50           105 µM
 2    CCOC(=O)/C(F)=C/c1cccc([N+](=O)[O-])c1           IC50         > 151 µM
 3           CCOC(=O)c1ccccc1NN1C(=O)C=CC1=O           IC50          52.5 µM
 4  CCOC1OC(COC(=O)C(C)(C)C)C(O)CC1n1cc(C)c(=O)[nH]c1=O (stereo not given)           IC50         > 200 µM
 5  CCOC(=O)C1Nc2ccc([N+](=O)[O-])cc2[C@H]2OCC[C@@H]12 (stereo not given in full)           IC50         > 447 µM
 6  CCCCCCCCCCCCn1[nH]c(C)c(C(=S)SCCCCCCCC)c1=O           IC50          56.2 µM
 7  OCC(Oc1ccccc1)C(O)C(O)C(CO)Oc1ccccc1 (stereo not given)           IC50         > 200 µM
 8  O=c1[nH]nc(-c2ccccc2)n1-c1cccc([N+](=O)[O-])c1           IC50         > 200 µM
 9  CCC(C)(C)OC(=O)CC[C@@H](C)[C@H]1CC[C@H]2[C@@H]3CCC4CC(O)CC[C@]4(C)[C@H]3CC[C@]12C (stereo not given in full)           IC50          27.5 µM
10  CCOC(=O)c1cc(C(=O)c2ccccc2)n2nc(-c3ccc(Cl)cc3)ccc12           IC50        > 50.1 µM

###

Test system: CEM cells HIV-1 protection, formazan growth assay
assay_remarks: NCI AIDS Antiviral Assay
EC50 by entry:

molecule	EC50
CCCCCCCCCCCCCCCCCCNC(=O)OCC(CNS(=O)(=O)CCC[n+]1cccc2ccccc21)COC (stereo not given)	> 200 µM
Clc1nssc1=Nc1nonc1-c1ccccc1	> 200 µM
CC(C)CC1C(=O)NCCC(NC(=O)C(Cc2ccc(OC(C)(C)C)cc2)NC(=O)OC(C)(C)C)C(=O)NC(Cc2ccccc2)C(=O)NC(Cc2ccccc2)NC1=O (stereo not given)	> 63.1 µM
CSc1nc(=S)[nH]c2n[nH]c(C)c12	> 200 µM
CCOC(=O)c1c(NC(=S)Nc2ccccc2)sc2c1CCN(C)C2	> 200 µM

###

System: CEM cells HIV-1 protection, formazan growth assay
assay_remarks: NCI AIDS Antiviral Assay
pEC50: −log10 of the molar value.
pEC50 by entry:
readout_label: pEC50

> print(dat)
                                    compound  measured.result
 1  C=Cc1c2[n-]c(c1C)/C=c1\[n-]/c(c(C)c1C=C)=C\c1[n-]c(c(CCC(=O)O)c1C)/C=c1\[n-]/c(c(C)c1CCC(=O)O)=C\2.[Fe+4]           < 4.84
 2                         O=c1c2ccccc2ncn1O           < 3.70
 3         CCOC(=O)NC(=S)NN(C)C1=NCC(C)(C)S1           < 3.70
 4  COc1cccc(/S(C)=N/S(=O)(=O)c2ccc(C)cc2)c1 (stereo not given)           < 3.11
 5      O=C(O)c1ccc2c3c(ncnc13)-c1ccccc1C2=O           < 3.70
 6  CC(C)OP(=O)(OC(C)C)C(C(C)C)N(C)/C(F)=N/C(F)(F)F (stereo not given)           < 3.70
 7          COc1ccc(/C=C(/C#N)C(N)=O)c(OC)c1           < 3.70
 8  O=C(CN1CCN(C(=O)OCc2ccccc2)CCN(CC(=O)N2CCCCC2)CCN(C(=O)OCc2ccccc2)CC1)N1CCCCC1           < 3.70
 9  NS(=O)(=O)c1ccc(NCc2cccc3c(=O)c4ccc(Cl)cc4oc23)cc1           < 4.00
10                      COC(=O)CCSSCCC(=O)OC           < 2.98

###

Test system: CEM cells HIV-1 protection, formazan growth assay
assay_remarks: NCI AIDS Antiviral Assay;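 active = compounds giving half or more protection of infected cells from virus-caused growth loss, again on retest; inactive = the rest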
Outcomes: active, inactive

molecule	answer_label
CCOC(=O)C1=C(C)/C(=C\c2[nH]c(C)c(C(=O)OCC)c2C)N=C1C	inactive
CC1(C)CC[P+](CC[P+]2(c3ccccc3)CCC(C)(C)c3ccccc32)(c2ccccc2)c2ccccc21 (centres undefined)	inactive
CN1C2CCC1C(C(=O)O)C(O)C2 (centres undefined)	inactive
CC(=O)O[C@@H]1CC[C@@]2(C)C(CC[C@H]3[C@@H]4CC[C@H]([C@H](C)CCc5nc6ccc(C)cc6[nH]5)[C@@]4(C)CC[C@@H]32)C1 (some centres undefined)	inactive
CC1(C)CCCC(C)(C)N1[P-]C(=O)[P-]N1C(C)(C)CCCC1(C)C.[C-]#[O+].[C-]#[O+].[C-]#[O+].[C-]#[O+].[C-]#[O+].[C-]#[O+].[Fe].[Fe] (centres undefined)	inactive
O=C(O)c1c(F)c(F)c(S)c(F)c1F	active
COP1(=S)OCC(C(C)(C)C)CO1 (centres undefined)	inactive
CCOC(=O)C(Cc1ccccc1)P(=O)(OCC)OCC (centres undefined)	inactive
O=C1c2cccn2-c2ccccc2SC1c1ccccc1 (centres undefined)	inactive

###

System: CEM cells HIV-1 protection, formazan growth assay
assay_remarks: NCI AIDS Antiviral Assay;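 active = compounds giving half or more protection of infected cells from virus-caused growth loss, again on retest; inactive = the rest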
Where a SMILES comes first, the peptide text is derived from it.
Outcomes: Yes for active, No for inactive

molecule	answer_label
Cc1ccc(S(=O)(=O)N/N=C2/C3C(CC2(C)C)C2(C)CCCC3(C)C2O)cc1 (stereo unspecified)	No
C[N+](C)(C)CC(=O)N/N=C(\Cc1nc2ccc([N+](=O)[O-])cc2[nH]c1=O)C(=O)Nc1nc2ccc([N+](=O)[O-])cc2s1	No
CN1C(C)(c2ccccc2)c2ccccc2S1(=O)=O (stereo unspecified)	Yes
O=C(NN1C(=O)C(Cl)C1c1ccccc1O)c1ccccc1O (stereo unspecified)	No
O=C1C=C(Nc2ccccc2C(=O)CC(=O)C(=O)Nc2ccc(Cl)c(Cl)c2)c2ccccc2C1=O	No
CC(C)CC(NC(=O)C(CC(=O)O)NC(=O)C(CO)NC(=O)C(CCCCN)NC(=O)C1CCCN1C(=O)C(CC(C)C)NC(=O)C(CO)NC(=O)CNC(=O)C(N)CCC(=O)O)C(=O)NC(CCCN=C(N)N)C(=O)O (stereo unspecified) (H-EGSLPKSDLR-OH; configuration not given here)	No
Cn1c2ccc(Cl)cc2c2oc(-c3nn[nH]n3)cc(=O)c21	No
CC/C=C/C(O[Si](C)(C)C(C)(C)C)C1CC2OC(=O)CCCC2O1 (stereo unspecified)	No
O=C1NC(=S)SC1N=Nc1ccc(S(=O)(=O)Nc2ncccn2)cc1 (stereo unspecified)	No
CC1C2Cc3ccc(O)cc3C1(C)CCN2C (stereo unspecified)	No
CC(=O)O[C@H]1CC[C@H]2[C@@H]3CCc4cc(O)c(I)cc4[C@H]3CC[C@]12C	No
CCSC1(SCC)CC(Cc2ccc(OC)cc2)N(C=NC(C)(C)C)C1 (stereo unspecified)	No
N[C@@H](CCC(=O)NC(Cc1ccccc1)C(=O)NCP(=O)(O)O)C(=O)O (stereo partly specified)	No
O=C(O)c1cc(-c2ccccc2)c(-c2ccccc2)cc1C(c1ccccc1)c1ccccc1	No
O=C1CCCC/C1=C\c1ccc(Br)cc1	No
COc1cc2c(cc1O)-c1[nH]ncc1CCC2	No
CCCC(C)(COC(N)=O)COC(=O)NC1CC1 (stereo unspecified)	No
CN1C(c2ccccc2)=C(C#N)C(=O)CC(c2cccs2)N1C (stereo unspecified)	No
C=CCc1cc(OC)c2c(c1)C(O)CC(c1ccccc1)O2 (stereo unspecified)	No
CCOC(=O)c1nc2ccc(Cl)cc2c2c1Cc1ccccc1-2	No
C=CCCC(C)N(C(=O)OC(C)(C)C)S(=O)(=O)c1ccc(C)cc1 (stereo unspecified)	No
N#C/C(=C/NC(N)=S)C(N)=O	No
COC(=O)C1c2c(C)cc3n2C(C=C(C)C3)C1C(=O)OC (stereo unspecified)	Yes
O=[N+]([O-])c1ccc(NC(=S)Nc2ccccn2)cc1	No
COC1(OC)C2C=CC1C([C@](C)(N)CO)C2 (stereo partly specified)	No
Cn1c(=O)[nH]c2[nH]c3ccccc3c2c1=O	No
COc1cc2c(cc1OC)C13CCN4CC5=CCOC6CC(=O)N2C1C6C5CC43 (stereo unspecified) (tested in a mixture with another compound)	No
CC(=O)OC1COC(n2c(=S)n(-c3ccccc3)c(=O)c3cc(Br)ccc32)C(OC(C)=O)C1OC(C)=O (stereo unspecified)	No
O=C1NC(N/N=C\C(O)C(O)C(O)C(O)CO)=N/C1=C/c1ccc(Cl)cc1 (stereo unspecified)	No
Cc1ccc(S(=O)(=O)N/N=c2/sc3ccccc3n2C)cc1	No
CCOC(OCC)(OCC)C(Br)CC (stereo unspecified)	No
NC(CO)C(=O)NCCS(=O)(=O)O (stereo unspecified)	No
C=CCON(C(=O)OC(C)(C)C)C(C)(C)C	No
CC(C)(C)[Si](C)(C)OCC1OC(n2ccc(=O)[nH]c2=O)C(O[Si](C)(C)C(C)(C)C)/C1=C/C#N (stereo unspecified)	No
CC(C)CCCC(C)[C@H]1CCC2[C@@H]1CC[C@@H]1[C@@]3(C)CC[C@H](CCC=C(c4cc(Cl)c(OCC(=O)O)c(C(=O)O)c4)c4cc(Cl)c(OCC(=O)O)c(C(=O)O)c4)C[C@@H]3CC[C@@]21C (stereo partly specified)	No
COc1cccc(C=C(C(C)=O)C(C)=O)c1	No
O=C(NCc1ccc(Cl)cc1)c1cc2sccc2nc1C(F)(F)F	Yes
Cc1nc(N)nc(N)c1N1CCN(c2ccc(N)cc2)CC1	No
Cn1nc(-c2ccccc2)c2c(-c3ccccc3)c3cc(Cl)ccc3nc21	No
COC(=O)C1=C(C(=O)OC)c2cc(OC)ccc2C(C(=S)N(C)C)S1 (stereo unspecified)	No
O=c1[nH]c(N/N=C\C(O)C(O)C(O)CO)nc2ccccc12 (stereo unspecified)	No
